Target: UniProt Q9H773
Sequence (Q9H773 1-170): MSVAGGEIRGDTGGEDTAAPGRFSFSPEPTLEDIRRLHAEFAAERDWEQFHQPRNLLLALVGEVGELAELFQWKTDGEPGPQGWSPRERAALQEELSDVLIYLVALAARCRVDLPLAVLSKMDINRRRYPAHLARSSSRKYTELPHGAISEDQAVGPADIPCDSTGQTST
Test: DCTPP1 inhibition assay (malachite green)
Assay type: biochemical
Conditions: 35 nM DCTPP1, 35 μM dCTP, 20 minutes at 22° C.; read-out: IC50 (nM), class
Excerpt: DCTPP1 catalyzes the hydrolysis of dCTP to dCMP and PPi. By coupling the reaction to pyrophosphatase added in excess PPi is converted to Pi that can be detected by using the malachite green assay reagent. […] The absorbance of the assay plate is read at 630 nm using a SpectraMax plate reader (Molecular Devices).
Reported IC50 values follow for various molecules

Solved cases below.
Cc1nc2c([N+](=O)[O-])c(Cl)c(Cl)cc2n1Cc1ccc(C(N)=O)cc1    < 100 nM
CC(=O)Oc1ccc(Cn2c(C)nc3c([N+](=O)[O-])c(Cl)c(Cl)cc32)cc1    < 100 nM
Cc1nc2c([N+](=O)[O-])c(Cl)c(Cl)cc2n1Cc1ccc(-n2cncn2)cc1    500 to 1000 nM

Now take the following molecule into account.
Can you share its IC50? I mean this molecule: `Cc1nc(Cn2c(C)nc3c([N+](=O)[O-])c(Cl)c(Cl)cc32)cs1`
100 to 500 nM

###

Reported IC50 values follow for various compounds
target: DCTPP1 (Homo sapiens); assay: DCTPP1 inhibition assay (malachite green); assay type: biochemical; details: 35 nM DCTPP1, 35 μM dCTP, 20 minutes at 22° C.; read-out: IC50 (nM), class

Solved cases below.
Cc1nc2c([N+](=O)[O-])c(Cl)c(Cl)cc2n1Cc1ccccc1B(O)O    < 100 nM
O=[N+]([O-])c1cccc2c1nc(C(F)(F)F)n2Cc1ccc(B(O)O)cc1    100 to 500 nM
Cc1nc2c([N+](=O)[O-])c(Cl)c(Cl)cc2n1Cc1ccc(C=NO)cc1    < 100 nM

Now take the following compound into account.
Can you share its IC50? I mean this compound: `Cc1nc2c([N+](=O)[O-])c(Cl)c(Cl)cc2n1Cc1ccc(O)cc1`
< 100 nM

###

target: DCTPP1 (Homo sapiens); test: DCTPP1 inhibition assay (malachite green); format: biochemical; settings: 35 nM DCTPP1, 35 μM dCTP, 20 minutes at 22° C.; read-out: IC50 (nM), class
quantity-kind: IC50

Cc1nc2c([N+](=O)[O-])c(F)c(F)cc2n1Cc1ccc(C#N)cc1    ≥ 1000 nM

Can you share its IC50? I mean this molecule: `CC1(C)CC(C)(C)c2c1cc1c(cnn1Cc1ccc(B(O)O)cc1)c2[N+](=O)[O-]`
≥ 1000 nM

Can you share its IC50? I mean this molecule: `COc1ccc(Cn2c(C)nc3c([N+](=O)[O-])c(C)c(C)cc32)cc1`
< 100 nM

Can you share its IC50? I mean this molecule: `Cc1nc2c([N+](=O)[O-])c(Cl)c(Cl)cc2n1Cc1ccc(Cl)nc1`
100 to 500 nM

Can you share its IC50? I mean this molecule: Cc1cc2c(nc(C)n2C(C)c2ccccc2)c([N+](=O)[O-])c1C (centres unmarked)
100 to 500 nM

Can you share its IC50? I mean this molecule: `Cc1nc2c([N+](=O)[O-])c(Cl)c(Cl)cc2n1-c1ccccc1`
< 100 nM

Can you share its IC50? I mean this molecule: `Cc1nc2c([N+](=O)[O-])c(Cl)c(Cl)cc2n1S(=O)(=O)c1ccccc1`
< 100 nM

Can you share its IC50? I mean this molecule: `Cc1nc2c([N+](=O)[O-])c(Cl)c(Cl)cc2n1Cc1ccc(C(=O)O)cc1`
< 100 nM

###

target: UniProtKB Q9H773; test: DCTPP1 inhibition assay (malachite green); type: biochemical; details: 35 nM DCTPP1, 35 μM dCTP, 20 minutes at 22° C.; read-out: IC50 (nM), class
Reported IC50 values follow for various compounds

Solved cases below.
Cc1cc2c(nc(C)n2Cc2ccc(F)cc2)c([N+](=O)[O-])c1C    100 to 500 nM
COc1ccc(Cn2c(-c3ccccc3)nc3cccc([N+](=O)[O-])c32)cc1    ≥ 1000 nM
Cc1nc2c([N+](=O)[O-])c(F)c(F)cc2n1C(C)c1ccccc1 (centres unmarked)    ≥ 1000 nM
Cc1nc2c([N+](=O)[O-])c(Cl)c(Cl)cc2n1Cc1ccc(S(C)(=O)=O)cc1    100 to 500 nM
COc1ccc(Cn2c(C)nc3c([N+](=O)[O-])c(Cl)c(Cl)cc32)cc1    < 100 nM
Cc1nc2c([N+](=O)[O-])c(Cl)c(Cl)cc2n1CCc1ccc(B(O)O)cc1    100 to 500 nM

Can you share its IC50? I mean this compound: `Cc1nc2c([N+](=O)[O-])c(F)c(F)cc2n1Cc1ccc(-n2cncn2)cc1`
≥ 1000 nM

Can you share its IC50? I mean this compound: `Cc1nc2c([N+](=O)[O-])c(Cl)c(Cl)cc2n1Cc1cccc(B(O)O)c1`
< 100 nM

###

Target: UniProt:Q9H773
Sequence (Q9H773 1-170): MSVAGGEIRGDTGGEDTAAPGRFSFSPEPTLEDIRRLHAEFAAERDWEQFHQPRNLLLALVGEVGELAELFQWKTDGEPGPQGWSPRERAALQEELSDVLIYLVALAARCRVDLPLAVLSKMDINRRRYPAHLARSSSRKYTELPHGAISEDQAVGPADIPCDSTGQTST
Assay: DCTPP1 inhibition assay (malachite green)
Format: biochemical
Details: 35 nM DCTPP1, 35 μM dCTP, 20 minutes at 22° C.; read-out: IC50 (nM), class
quantity-kind: IC50

COc1ccc(Cn2c(-c3ccccc3)nc3c([N+](=O)[O-])cccc32)cc1    ≥ 1000 nM
COc1cc(Cn2c(C)nc3c([N+](=O)[O-])c(C)c(C)cc32)cc(OC)c1OC    ≥ 1000 nM
Cc1n[nH]c(C)c1CCn1c(C)nc2c([N+](=O)[O-])c(Cl)c(Cl)cc21    100 to 500 nM
COC(=O)c1ccc(Cn2c(C)nc3c([N+](=O)[O-])c(Cl)c(Cl)cc32)cc1    100 to 500 nM
Cc1cc2c(nc(C)n2Cc2cc3c(cc2Cl)OCO3)c([N+](=O)[O-])c1C    ≥ 1000 nM
Cc1nc2c([N+](=O)[O-])c(Cl)c(Cl)cc2n1C(=O)c1ccccc1    100 to 500 nM
COc1ccc(Cn2c(Cc3ccccc3)nc3cccc([N+](=O)[O-])c32)cc1    ≥ 1000 nM

Request - read-out IC50 | tested on UniProt:Q9H773 | compound `Cc1cc2c(nc(C)n2Cc2ccc(OC(F)(F)F)cc2)c([N+](=O)[O-])c1C`
100 to 500 nM

###

target: DCTPP1 (Homo sapiens, UniProt Q9H773); experiment: DCTPP1 inhibition assay (malachite green); type: biochemical; details: 35 nM DCTPP1, 35 μM dCTP, 20 minutes at 22° C.; read-out: IC50 (nM), class
quantity-kind: IC50

COc1ccc(Cn2c(OC)nc3cccc([N+](=O)[O-])c32)cc1    ≥ 1000 nM
Cc1nc2c([N+](=O)[O-])c(F)c(F)cc2n1Cc1ccc(B(O)O)cc1    500 to 1000 nM
Cc1nc2c([N+](=O)[O-])c(Cl)c(Cl)cc2n1Cc1ccc(C#N)cc1    100 to 500 nM

Now take the following compound into account.
Can you share its IC50? I mean this compound: `COc1ccc(Cn2c(C)nc3c([N+](=O)[O-])cccc32)cc1`
≥ 1000 nM

###

biological target: DCTPP1 (Homo sapiens); assay: DCTPP1 inhibition assay (malachite green); assay type: biochemical; conditions: 35 nM DCTPP1, 35 μM dCTP, 20 minutes at 22° C.; read-out: IC50 (nM), class
quantity-kind: IC50

Solved cases below.
COCc1nc2c([N+](=O)[O-])cccc2n1Cc1ccc(OC)cc1    ≥ 1000 nM
Cc1nc2cc(F)c(F)c([N+](=O)[O-])c2n1Cc1ccc(B(O)O)cc1    500 to 1000 nM
Cc1nc2c([N+](=O)[O-])c(Cl)c(Cl)cc2n1Cc1ccc(-n2cccn2)cc1    < 100 nM
Cc1nc2c([N+](=O)[O-])c(F)c(F)cc2n1Cc1ccc(F)cc1    500 to 1000 nM
COc1ccc(Cn2c(C(C)C)nc3c([N+](=O)[O-])cccc32)cc1    ≥ 1000 nM
COc1ccc(Cn2c(Cc3ccccc3)nc3c([N+](=O)[O-])cccc32)cc1    ≥ 1000 nM
Cc1cc2c(nc(C(F)(F)F)n2Cc2ccc(B(O)O)cc2)c([N+](=O)[O-])c1C    < 100 nM

Now take the following compound into account.
Can you share its IC50? I mean this compound: `O=[N+]([O-])c1c(Cl)c(Cl)cc2c1nc(C1CC1)n2Cc1ccc(B(O)O)cc1`
< 100 nM
